Reference for the values: paper PMC6355318

System: P. falciparum
Assay: blood stage hypoxanthine incorporation (HXI) cell-based assay
Details: Plasmodium falciparum, read-out: Pf HXI pEC50 (converted)
API: label(entry) gives 1.0 if the entry's EC50 is strictly smaller than 600 nM; on equality or larger values it gives 0.0.

# COMPOUND, CLASS ASSIGNMENT
rows = [
    ("CN1CCN(c2ccc(Nc3nccc(-c4c(-c5ccc(F)cc5)nc5ccccn45)n3)cc2)CC1", 1.0),
    ("CN(C)Cc1cc2nc(-c3ccc(F)cc3)c(-c3ccnc(N)n3)n2cn1", 0.0),
    ("CN1CCC(n2cc(Nc3nccc(-c4c(-c5ccc(F)cc5)nc5ccccn45)n3)cn2)CC1", 1.0),
    ("CN(C)Cc1ccc2c(-c3ccnc(N)n3)c(-c3ccc(F)cc3)nn2c1", 1.0),
    ("CN(C)Cc1ccn2c(-c3ccnc(N)n3)c(-c3ccc(F)cc3)nc2n1", 0.0),
    ("CN1CCC(c2ccc(Nc3nccc(-c4c(-c5ccc(F)cc5)nc5ccccn45)n3)cc2)CC1", 1.0),
    ("CN(C)Cc1ccn2c(-c3ccnc(N)n3)c(-c3ccc(F)cc3)nc2c1 [Compound 2, reference compound]", 1.0),
]

---

Documented MLM % rem across a set of compounds
Conditions: % remaining after 30 mins, mouse liver microsomes, 1 μM
MEASURED ENDPOINT: MLM % rem (%)

# CHEMICAL SMILES, VALUE REPORTED
records = [
    ("CN(C)Cc1ccc2c(-c3ccnc(N)n3)c(-c3ccc(F)cc3)nn2c1", 22),
    ("CN1CCC(c2ccc(Nc3nccc(-c4c(-c5ccc(F)cc5)nc5ccccn45)n3)cc2)CC1", 55),
    ("CN1CCC(n2cc(Nc3nccc(-c4c(-c5ccc(F)cc5)nc5ccccn45)n3)cn2)CC1", 37),
    ("CN(C)Cc1ccn2c(-c3ccnc(N)n3)c(-c3ccc(F)cc3)nc2n1", 67),
    ("CN1CCN(c2ccc(Nc3nccc(-c4c(-c5ccc(F)cc5)nc5ccccn45)n3)cc2)CC1", 65),
    ("CN(C)Cc1ccc2c(c1)nc(-c1ccc(F)cc1)n2-c1ccnc(N)n1", 78),
    ("CN(C)CCNc1ccc2nc(-c3ccc(F)cc3)c(-c3ccnc(N)n3)n2n1", 68),
    ("CN(C)CCCNc1nccc(-c2c(-c3ccc(F)cc3)nc3ccccn23)n1", 62),
    ("CN(C)Cc1cc2nc(-c3ccc(F)cc3)c(-c3ccnc(N)n3)n2cn1", 59),
    ("Fc1ccc(-c2nc3ccccn3c2-c2ccnc(NC3CCOCC3)n2)cc1", 84),
]

---

Documented mLogD across a set of molecules
Experiment: Measured logD (shake flask)
Type: physicochemical
Conditions: octanol/PBS
Procedure: LogD measurements were carried out using the shake flask method. […] The ratios of areas of the peaks were used to calculate the LogD in accordance with the equation: LogD = Log10(Area-TL/Area BL)

# CHEMICAL SMILES, mLogD
data = [
    ("CN1CCC(n2cc(Nc3nccc(-c4c(-c5ccc(F)cc5)nc5ccccn45)n3)cn2)CC1", 2.7),
    ("CN(C)Cc1ccc2c(-c3ccnc(N)n3)c(-c3ccc(F)cc3)nn2c1", 2.5),
    ("CN(C)CCCNc1nccc(-c2c(-c3ccc(F)cc3)nc3ccccn23)n1", 1.8),
    ("CN(C)CCNc1ccc2nc(-c3ccc(F)cc3)c(-c3ccnc(N)n3)n2n1", 1.6),
    ("CN(C)Cc1cc2nc(-c3ccc(F)cc3)c(-c3ccnc(N)n3)n2cn1", 2.1),
    ("CN(C)Cc1ccc2c(c1)nc(-c1ccc(F)cc1)n2-c1ccnc(N)n1", 1.2),
    ("CN(C)Cc1ccn2c(-c3ccnc(N)n3)c(-c3ccc(F)cc3)nc2n1", 2.1),
    ("Fc1ccc(-c2nc3ccccn3c2-c2ccnc(NC3CCOCC3)n2)cc1", 1.8),
    ("CN1CCC(c2ccc(Nc3nccc(-c4c(-c5ccc(F)cc5)nc5ccccn45)n3)cc2)CC1", 3.3),
    ("CN1CCN(c2ccc(Nc3nccc(-c4c(-c5ccc(F)cc5)nc5ccccn45)n3)cc2)CC1", 4.0),
]
